assay: molar heat capacity at constant pressure; conditions: 255.15 K; 101.33 kPa; Crystal; Small sample (50 mg) DSC
measurement kind: molar heat capacity at constant pressure (J/K/mol)
Express it in J/K/mol; write the number only.

Example molecules with recorded molar heat capacity at constant pressure:
[
  {
    "molecule": "O[C@H]1[C@H](O)[C@@H](O)[C@H](O)[C@@H](O)[C@H]1O [cis-1,2,3,5-trans-4,6-cyclohexanehexol]",
    "molar heat capacity at constant pressure / J/K/mol": 184.96
  },
  {
    "molecule": "OC[C@@H](O)[C@@H](O)CO",
    "molar heat capacity at constant pressure / J/K/mol": 141.49
  },
  {
    "molecule": "OC[C@@H](O)[C@@H](O)[C@H](O)[C@H](O)CO",
    "molar heat capacity at constant pressure / J/K/mol": 198.46
  },
  {
    "molecule": "OC[C@H](O)C(O)[C@@H](O)CO [L-(-)-arabitol]",
    "molar heat capacity at constant pressure / J/K/mol": 176.03
  },
  {
    "molecule": "OC[C@@H](O)[C@H](O)[C@@H](O)CO",
    "molar heat capacity at constant pressure / J/K/mol": 178.41
  }
]

Challenge: Requested read-out: molar heat capacity at constant pressure. Entry: OC[C@@H](O)C(O)[C@H](O)CO
Response given: 170.83
